B1: tRNA (parent)
chain: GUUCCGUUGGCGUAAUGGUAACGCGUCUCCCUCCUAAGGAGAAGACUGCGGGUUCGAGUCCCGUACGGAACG

variants of: B1; experiment: yeast fitness relative to wild type (ratio to wild type); higher = fitter; tRNA-Arg(CCU), competitive growth, 37 C, YPD
This sample holds only a part of the variants without activity.
yeast fitness values by entry
Readout name: yeast fitness

mutation="G23C U26C" result=0.624
mutation="A15U A57U A70C" result="≤ 0.5"
mutation="C5G C22U C29G" result=0.659
mutation="G58C G63C" result=0.702
mutation="C30U C61U G63A A65G" result="≤ 0.5"
mutation="G17A A40U G52A C60U G63C" result="≤ 0.5"
mutation="C29G C30A C49U" result="≤ 0.5"
mutation="C4U C46U C49G U59C" result="≤ 0.5"
mutation="C11G U26C A45C A57C U59G" result="≤ 0.5"
mutation="G10C A42U C61U C62U" result="≤ 0.5"
mutation="C49A C61G" result=0.541
